B1: TRIM39 (parent)
chain: YPCVLATEGFTSGRHYWEVEVGDK

- Variants of: B1
- test-details: protein stability index of a GFP-peptide fusion (GPS, HEK-293T) (PSI 1-6); higher = more stable;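 also: lentivirally expressed fusions sorted by FACS into six bins by GFP to DsRed ratio, PSI derived from sequencing read proportions per bin multiplied by bin number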
- applied-conditions: c terminus: a fixed tail appended
The variants listed here are annotated with their protein stability index.
assay-metric: protein stability index

[[record]]
sequence_variant = "G9W"
numeric_value = 1.96

[[record]]
sequence_variant = "G13C"
numeric_value = 1.91

[[record]]
sequence_variant = "S12C"
numeric_value = 1.96

[[record]]
sequence_variant = "S12Q"
numeric_value = 1.66

[[record]]
sequence_variant = "R14S"
numeric_value = 2.07

[[record]]
sequence_variant = "A6W"
numeric_value = 2.16

[[record]]
sequence_variant = "Y1V"
numeric_value = 2.8

[[record]]
sequence_variant = "H15Y"
numeric_value = 2.58

[[record]]
sequence_variant = "G13K"
numeric_value = 2.39

[[record]]
sequence_variant = "P2A"
numeric_value = 1.84

[[record]]
sequence_variant = "L5V"
numeric_value = 1.74

[[record]]
sequence_variant = "P2Q"
numeric_value = 2.05

[[record]]
sequence_variant = "G13Q"
numeric_value = 1.71

[[record]]
sequence_variant = "G13H"
numeric_value = 1.46

[[record]]
sequence_variant = "G13D"
numeric_value = 2.24

[[record]]
sequence_variant = "G22N"
numeric_value = 1.91

[[record]]
sequence_variant = "E8I"
numeric_value = 2.16

[[record]]
sequence_variant = "W17K"
numeric_value = 2.76

[[record]]
sequence_variant = "R14M"
numeric_value = 1.66

[[record]]
sequence_variant = "E8N"
numeric_value = 1.85

[[record]]
sequence_variant = "H15C"
numeric_value = 2.2

[[record]]
sequence_variant = "E18I"
numeric_value = 1.89

[[record]]
sequence_variant = "Y1K"
numeric_value = 3.15

[[record]]
sequence_variant = "E8A"
numeric_value = 1.33

[[record]]
sequence_variant = "G13S"
numeric_value = 2.03

[[record]]
sequence_variant = "V19C"
numeric_value = 2.18

[[record]]
sequence_variant = "P2C"
numeric_value = 1.94

[[record]]
sequence_variant = "E8M"
numeric_value = 2.25

[[record]]
sequence_variant = "V21I"
numeric_value = 2.24

[[record]]
sequence_variant = "D23C"
numeric_value = 1.71

[[record]]
sequence_variant = "T7N"
numeric_value = 2.45

[[record]]
sequence_variant = "V21F"
numeric_value = 1.95

[[record]]
sequence_variant = "Y1F"
numeric_value = 1.59

[[record]]
sequence_variant = "W17Q"
numeric_value = 3.68

[[record]]
sequence_variant = "R14C"
numeric_value = 1.79

[[record]]
sequence_variant = "L5E"
numeric_value = 2.34

[[record]]
sequence_variant = "L5D"
numeric_value = 2.17

[[record]]
sequence_variant = "E20R"
numeric_value = 3.35

[[record]]
sequence_variant = "V21R"
numeric_value = 2.05

[[record]]
sequence_variant = "G22L"
numeric_value = 1.81

[[record]]
sequence_variant = "E8L"
numeric_value = 1.89

[[record]]
sequence_variant = "L5M"
numeric_value = 1.46

[[record]]
sequence_variant = "A6C"
numeric_value = 1.44

[[record]]
sequence_variant = "A6V"
numeric_value = 1.89

[[record]]
sequence_variant = "T7F"
numeric_value = 2.32

[[record]]
sequence_variant = "Y1H"
numeric_value = 3.55

[[record]]
sequence_variant = "E18D"
numeric_value = 1.45

[[record]]
sequence_variant = "T7C"
numeric_value = 1.84

[[record]]
sequence_variant = "T7A"
numeric_value = 2.27

[[record]]
sequence_variant = "G13N"
numeric_value = 1.57

[[record]]
sequence_variant = "V4Q"
numeric_value = 1.46

[[record]]
sequence_variant = "P2N"
numeric_value = 2.21

[[record]]
sequence_variant = "G22C"
numeric_value = 1.66

[[record]]
sequence_variant = "R14E"
numeric_value = 3.04

[[record]]
sequence_variant = "T11P"
numeric_value = 2.19

[[record]]
sequence_variant = "T7V"
numeric_value = 1.79

[[record]]
sequence_variant = "V21Y"
numeric_value = 2.14

[[record]]
sequence_variant = "E8D"
numeric_value = 1.93

[[record]]
sequence_variant = "V19E"
numeric_value = 2.59

[[record]]
sequence_variant = "G9R"
numeric_value = 2.38

[[record]]
sequence_variant = "K24L"
numeric_value = 2.05

[[record]]
sequence_variant = "P2Y"
numeric_value = 1.66

[[record]]
sequence_variant = "R14G"
numeric_value = 2.48

[[record]]
sequence_variant = "E8P"
numeric_value = 1.62

[[record]]
sequence_variant = "V4E"
numeric_value = 2.88

[[record]]
sequence_variant = "V21E"
numeric_value = 1.77

[[record]]
sequence_variant = "F10N"
numeric_value = 2.34

[[record]]
sequence_variant = "G13L"
numeric_value = 1.95

[[record]]
sequence_variant = "V4G"
numeric_value = 2.69

[[record]]
sequence_variant = "Y1S"
numeric_value = 3.49

[[record]]
sequence_variant = "V21S"
numeric_value = 1.88

[[record]]
sequence_variant = "R14V"
numeric_value = 2.06

[[record]]
sequence_variant = "V21P"
numeric_value = 1.43

[[record]]
sequence_variant = "V19K"
numeric_value = 2.98

[[record]]
sequence_variant = "F10Q"
numeric_value = 1.63

[[record]]
sequence_variant = "T11G"
numeric_value = 2.09

[[record]]
sequence_variant = "G9T"
numeric_value = 2.03

[[record]]
sequence_variant = "E20K"
numeric_value = 2.4

[[record]]
sequence_variant = "T7I"
numeric_value = 1.63

[[record]]
sequence_variant = "V21D"
numeric_value = 2.2

[[record]]
sequence_variant = "E8T"
numeric_value = 2.01

[[record]]
sequence_variant = "L5K"
numeric_value = 2.21

[[record]]
sequence_variant = "V4D"
numeric_value = 2.54

[[record]]
sequence_variant = "F10M"
numeric_value = 2.69

[[record]]
sequence_variant = "V19M"
numeric_value = 2.63

[[record]]
sequence_variant = "W17S"
numeric_value = 3.62

[[record]]
sequence_variant = "K24R"
numeric_value = 1.75

[[record]]
sequence_variant = "H15P"
numeric_value = 2.16

[[record]]
sequence_variant = "Y1L"
numeric_value = 2.96

[[record]]
sequence_variant = "G9D"
numeric_value = 2.01

[[record]]
sequence_variant = "Y1D"
numeric_value = 3.45

